# System: A549 NSCLC
# TEST_DETAILS: NCI tumour cell line growth inhibition, 48 h
REPORTED_METRIC: TGI

[[record]]
compound = "Cc1sc(N=Nc2c(O)[nH]c3ccccc23)nc1-c1ccccc1"
reported_metric = "TGI"
result = "32.6 µM"

[[record]]
compound = "CCNC1CC(C(C)(C)NCC)CC=C1C (stereo not drawn)"
reported_metric = "TGI"
result = "> 100 µM"

[[record]]
compound = "O=C1CCC(=O)c2cc(Br)ccc2N1"
reported_metric = "TGI"
result = "> 100 µM"

[[record]]
compound = "Cc1c(-c2ccccc2)n(C)c2cn[nH]c(=O)c12"
reported_metric = "TGI"
result = "> 100 µM"

[[record]]
compound = "COC(=O)[C@]1(c2cc3ccccc3n2S(=O)(=O)c2ccccc2)CC2CCC1NC2 (stereo partly drawn)"
reported_metric = "TGI"
result = "25.2 µM"

[[record]]
compound = "COC(=O)C1CCc2c(OC)ccc(OC)c2C1=O (stereo not drawn)"
reported_metric = "TGI"
result = "> 100 µM"

[[record]]
compound = "CCOC(=O)c1c(C)c2c(n1C)CSc1cc(S(=O)(=O)c3ccccc3)c(=O)[nH]c1-2"
reported_metric = "TGI"
result = "> 100 µM"

[[record]]
compound = "CCCCCCCCCCCCCCCCCC(=O)NCCCNCCCNC(=O)CCCCCCCCCCCCCCCCC"
reported_metric = "TGI"
result = "> 100 µM"

[[record]]
compound = "CCOC(=O)Cn1nc2ccc(Nc3nc4ccccc4nc3C(=O)OCC)cc2n1"
reported_metric = "TGI"
result = "> 100 µM"

[[record]]
compound = "COc1ccc(OC)c(-c2nc3sccn3c2/C=C2/C(=O)Nc3ccccc32)c1"
reported_metric = "TGI"
result = "> 60.2 µM"

[[record]]
compound = "CS(=O)(=O)C(=Cc1ccccc1Cl)S(C)(=O)=O"
reported_metric = "TGI"
result = "> 100 µM"

[[record]]
compound = "COc1cc(OC)c(/C=N/N=C(\\N)NO)c(OC)c1"
reported_metric = "TGI"
result = "> 100 µM"

[[record]]
compound = "CC1=COC2=C(C)C(=O)C(=O)c3c(C)ccc1c32"
reported_metric = "TGI"
result = "15.2 µM"

[[record]]
compound = "CC(=O)OC1CC(OC2C(O)CC(OC3C(O)CC(OC4CCC5(C)C(CCC6C5CC(O)C5(C)C(C7=CC(=O)OC7)CCC65O)C4)OC3C)OC2C)OC(C)C1O (stereo not drawn) (tested in a mixture with another compound)"
reported_metric = "TGI"
result = "0.0259 µM"

[[record]]
compound = "CC[n+]1[b-](C(C)(C)C)n(/N=C(\\C)C(C)(C)C)[b-](C(C)(C)C)[n+]1CC"
reported_metric = "TGI"
result = "> 100 µM"

[[record]]
compound = "C=C1C(=O)C=C2C=C3C(=O)C(C)(C)C[C@]3(O)C12C (stereo partly drawn)"
reported_metric = "TGI"
result = "40.4 µM"

[[record]]
compound = "O=C(Oc1ccc([N+](=O)[O-])cc1)N1CCC(C(O)(c2ccc3c(c2)OCO3)c2ccc3c(c2)OCO3)CC1"
reported_metric = "TGI"
result = "> 100 µM"

[[record]]
compound = "Cc1oc2c(c1C(=O)c1ccccc1)C(=O)c1ccccc1C2=O"
reported_metric = "TGI"
result = "40.2 µM"

[[record]]
compound = "O=S(=O)(Nc1ccccc1S(=O)(=O)c1ccccc1)c1ccccc1"
reported_metric = "TGI"
result = "> 100 µM"

[[record]]
compound = "Cc1c2n(c3ccccc13)CC1C2N(C)OC1(C)C (stereo not drawn)"
reported_metric = "TGI"
result = "> 100 µM"

[[record]]
compound = "O=C1/C(=C\\c2ccccc2)c2ccccc2N1Cc1ccccc1"
reported_metric = "TGI"
result = "22.5 µM"

[[record]]
compound = "O=C1OC(=O)C2C3CCC(O3)C12 (stereo not drawn)"
reported_metric = "TGI"
result = "> 100 µM"

[[record]]
compound = "C(/COc1cccnc1)=N\\NC1=NCCN1"
reported_metric = "TGI"
result = "> 100 µM"

[[record]]
compound = "COC(=O)[C@]1(c2cc3ccccc3[nH]2)CC2CN(CC(=O)N(C)OC)C1C1OC(C)(C)OC21 (stereo partly drawn)"
reported_metric = "TGI"
result = "> 100 µM"

[[record]]
compound = "CN/N=C(\\C)CC(=O)Nc1cccc(Cl)c1C"
reported_metric = "TGI"
result = "> 100 µM"

[[record]]
compound = "O=C(O)/C(=C\\c1ccccc1)Cc1ccccc1"
reported_metric = "TGI"
result = "> 100 µM"

[[record]]
compound = "N#Cc1c(N2CCOCC2)ncn(-c2ccccc2)c1=O"
reported_metric = "TGI"
result = "> 100 µM"

[[record]]
compound = "CCN(C)S(=O)(=O)Nc1cccc(Nc2ncnc3cc(NC(=O)CCl)ccc23)c1Cl"
reported_metric = "TGI"
result = "16.3 µM"

[[record]]
compound = "CC1CC2C3CC(F)C4=CC(=O)C=CC4(C)C3(F)C(O)CC2(C)C1(O)C(=O)CO (stereo not drawn)"
reported_metric = "TGI"
result = "> 100 µM"

[[record]]
compound = "COc1ccc(C2=C(OC(C)=O)c3cccn3-c3ccccc3S2)cc1"
reported_metric = "TGI"
result = "> 10 µM"

[[record]]
compound = "CCC(=S)N(C)O"
reported_metric = "TGI"
result = "> 100 µM"

[[record]]
compound = "O=c1cccc(C#CCCCCOC2CCCO2)o1 (stereo not drawn)"
reported_metric = "TGI"
result = "> 48.8 µM"

[[record]]
compound = "NC(N)=NC(N)=NCCc1ccccc1"
reported_metric = "TGI"
result = "> 100 µM"

[[record]]
compound = "C=CCSc1n[nH]c(-c2cccs2)n1"
reported_metric = "TGI"
result = "> 100 µM"

[[record]]
compound = "O=C1Nc2ccccc2SC1C1SC(=S)N(Cc2ccccc2)C1=O (stereo not drawn)"
reported_metric = "TGI"
result = "> 51.4 µM"

[[record]]
compound = "Cc1ccc2c(c1)NC(=O)C(N=[N+]=[N-])(c1ccccc1)C2=O (stereo not drawn)"
reported_metric = "TGI"
result = "> 100 µM"

[[record]]
compound = "C=C(C)C1CC[C@]2(C(=O)O)CCC3(C)[C@H](CCC4[C@@]5(C)CC[C@H](OC6OC(CO)C(O)C6OC6OC(C)C(O)C(O)C6O)[C@@](C)(CO)C5CC[C@]43C)C12 (stereo partly drawn)"
reported_metric = "TGI"
result = "> 100 µM"

[[record]]
compound = "COc1ccc(OC)c(C2CCc3cnc4nc(N)nc(N)c4c3C2)c1 (stereo not drawn)"
reported_metric = "TGI"
result = "> 100 µM"

[[record]]
compound = "NC1=C(c2nc(-c3cc4ccccc4oc3=O)cs2)C(c2ccco2)c2c(c3ccccc3oc2=O)O1 (stereo not drawn)"
reported_metric = "TGI"
result = "> 150 µg/mL"

[[record]]
compound = "Cc1ccc(C(=O)/C=C/c2ccccc2Cl)cc1"
reported_metric = "TGI"
result = "85.4 µM"

[[record]]
compound = "OCCOCCO[P+]1(OCCOCCO)n2c3ccc2C(c2ccccc2)=C2C=CC(=N2)C(c2ccccc2)=c2ccc(n21)=C(c1ccccc1)C1=NC(=C3c2ccccc2)C=C1"
reported_metric = "TGI"
result = "3.29 µM"

[[record]]
compound = "CC(=O)Oc1ccc(-c2cc3ccccc3oc2=O)cc1OC(C)=O"
reported_metric = "TGI"
result = "94.7 µM"

[[record]]
compound = "CCOC(=O)c1sc2nc(SC)nc(Nc3ccc(OC)c(OC)c3)c2c1N"
reported_metric = "TGI"
result = "> 100 µM"

